# Tested on: MEK3
# Construct: gene MAP2K3
# Condition: concentration: 1 μM, replicates: in singlicate; n = 1;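 note: KINOMEscan kinase panel screen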
Measured property: %Inh (%)
Express it in %; write the number only.

Consider the compound shown here: Cc1nnc(-c2ccc3ncn(-c4ccc(S(C)=O)cc4)c3c2)o1 (stereo not shown) What is its recorded %Inh? 15

Consider the compound shown here: Cc1cc(Nc2nc(-c3cccc(C)n3)nc3ccccc23)ccn1 [GW872411] What is its recorded %Inh? 12

Consider the compound shown here: OCCCNc1nccc(-c2c(-c3cccc(C(F)(F)F)c3)nn3cc(C(F)(F)F)ccc23)n1 [GW630813] What is its recorded %Inh? 0

Consider the compound shown here: "Cc1nc(N(C)[C@H]2CN(C(=O)CC#N)CC[C@H]2C)c2cc[nH]c2n1" What is its recorded %Inh? 10

Consider the compound shown here: CCn1c(-c2nonc2N)nc2ccccc21 [SB-693162/GW549034] What is its recorded %Inh? 47

Consider the compound shown here: COc1cc(Nc2nccc(N3CCC(NC(=O)C4COc5ccccc5O4)C3)n2)cc(OC)c1OC (stereo not shown) [GSK1379761] What is its recorded %Inh? 0

Consider the compound shown here: CCS(=O)c1ccc(-c2coc3ccc(-c4nnc(C)o4)cc23)cc1 (stereo not shown) What is its recorded %Inh? 6

Consider the compound shown here: Cl.c1ccc(Cn2cnc3cc(Nc4ncnc5ccccc45)ccc32)cc1 [GW272142] What is its recorded %Inh? 0

Consider the compound shown here: O=C(NCCNc1ccnc(Nc2ccc(F)cc2)n1)Nc1ccc2c(c1)OCO2 [GSK1379882] What is its recorded %Inh? 4

Consider the compound shown here: "CCC(=O)c1c(-c2ccccc2)c2cc(Cl)ccc2c(=O)n1Cc1cc(C(=O)NC2CC2)n(C)n1" What is its recorded %Inh? 2

Consider the compound shown here: "COc1ccc(-c2cc3c(C)nc(N)nc3n([C@H]3CC[C@H](O)CC3)c2=O)cn1" What is its recorded %Inh? 0

Consider the compound shown here: Nc1ncnc2c1ncn2-c1cccc(F)c1 [SKF-97560] What is its recorded %Inh? 43

Consider the compound shown here: Nc1nccc2scc(-c3ccc4c(c3)CCN4C(=O)Cc3ccccc3)c12 [GSK2576924] What is its recorded %Inh? 0

Consider the compound shown here: O=C(Nc1n[nH]c2cc(-c3ccccc3F)ccc12)C1CC1 [SB-733371] What is its recorded %Inh? 16

Consider the compound shown here: "CC(C)(C)c1ccc(C(=O)Nc2cn3cc(-c4ccccc4)ccc3n2)cc1" What is its recorded %Inh? 25

Consider the compound shown here: Cc1ccccc1COc1cc(-n2cnc3cc(Cl)ccc32)sc1C(N)=O [GW813349] What is its recorded %Inh? 19

Consider the compound shown here: Cc1c(Cn2c(C)nn3c(=O)cc(N4CCO[C@H](C)C4)nc23)cccc1C(F)(F)F [GSK2373690] What is its recorded %Inh? 0

Consider the compound shown here: Nc1n[nH]c2nnc(-c3ccccc3)c(-c3ccccc3)c12 [GW554060] What is its recorded %Inh? 5

Consider the compound shown here: C[C@@H]1CC[C@H](C(=O)NC2CCCCC2)CN1c1cc(-c2ccc3c(N)n[nH]c3c2)nc(N)n1 [GSK2291363] What is its recorded %Inh? 18

###

# Tested on: RSK3(Kin.Dom.2-C-terminal)
# Construct: gene RPS6KA2
# Condition: concentration: 1 μM, replicates: in singlicate; n = 1
Measured property: %Inh (%)
Express it in %; write the number only.

Consider the molecule shown here: "Cc1cc(Nc2nc(-c3cccc(C)n3)nc3ccccc23)ccn1" What is its recorded %Inh? 7

Consider the molecule shown here: "Nc1ncnc2c1ncn2-c1cccc2ccccc12" What is its recorded %Inh? 36

Consider the molecule shown here: CCS(=O)c1ccc(-c2coc3ccc(-c4nnc(C)o4)cc23)cc1 (stereo not drawn) What is its recorded %Inh? 11

Consider the molecule shown here: "COC(=O)c1c(-c2ccccc2)c2cc(Br)ccc2c(=O)n1Cc1ccc(S(C)(=O)=O)cc1" What is its recorded %Inh? 0

Consider the molecule shown here: "CCC(=O)c1c(-c2ccccc2)c2cc(Cl)ccc2c(=O)n1Cc1cc(S(C)(=O)=O)n(CC(F)F)n1" What is its recorded %Inh? 0

Consider the molecule shown here: "COc1cc2nccc(Nc3cccc(Oc4ccccc4)c3)c2cc1OC.Cl" What is its recorded %Inh? 0

Consider the molecule shown here: "Nc1n[nH]c2ncc(-c3ccccc3)cc12" What is its recorded %Inh? 0

Consider the molecule shown here: "CCC(=O)c1c(-c2ccccc2)c2cc(Cl)ccc2c(=O)n1Cc1cc(S(C)(=O)=O)n(CCC(C)(C)O)n1" What is its recorded %Inh? 5

Consider the molecule shown here: "Nc1ncnc2c1ncn2-c1ccc(Cl)cc1" What is its recorded %Inh? 0
